Tested on: Human immunodeficiency virus 1
Assay: Antiviral activity against HIV1 3B in human MT4 cells
Type: functional, organism-based
Details: Human immunodeficiency virus 1, 3B
Property Name: pEC50
Friendly reminder that pEC50 comes from taking -log10 of the concentration in mol/L.

pEC50 recorded for this compound, O=C1CSC(c2c(Cl)cccc2Cl)N1Cc1ccco1 (stereo unspecified) , is 6.69

This collection of values is drawn from ChEMBL document CHEMBL1141658.
